Where a name gives a salt, the structure may show the parent alone.
melting point by entry:

Please review the following examples before continuing.
COc1ccccc1OCCNCCCCNC(=O)C1CCCCCC1 (as salt: fumarate) :: 125 to 126 °C
COc1ccccc1OCCNCCCCNC(=O)CC(C)(C)C (as salt: fumarate) :: 130 to 132 °C

Proceed to the following item.
Entry COc1ccccc1OCCNCCCCNC(=O)c1ccccn1 (as salt: salt) has what melting point?
152 to 154 °C

###

melting point by entry:
Structures can show the parent of a compound that is named as a salt.

Please review the following examples before continuing.
COc1ccccc1OCCNCCCCNC(=O)C1CCCCC1 (as salt: fumarate) [compound 34] :: 134 to 136 °C
COc1ccccc1OCCNCCCCNC(=O)c1cccc(I)c1 (as salt: salt) [compound 30] :: 121 to 121.5 °C
COc1ccccc1OCCNCCCCNC(=O)C1(C)CCCCC1 (as salt: fumarate) [compound 45] :: 120 to 122 °C
COc1ccccc1OCCNCCCCNC(=O)C1CC2CCC1C2 (centres unmarked) (as salt: fumarate) [compound 50] :: 130 to 131 °C
COc1cccc(C(=O)NCCCCNCCOc2ccccc2OC)c1 (as salt: fumarate) [compound 14] :: 68 to 70 °C
COc1ccccc1OCCNCCCCNC(=O)c1ccc(F)cc1 (as salt: salt) [compound 23] :: 119 to 120.5 °C
COc1ccccc1OCCNCCCCNC(=O)CC1CCCC1 (as salt: fumarate) [compound 59] :: 118 to 119 °C

Proceed to the following item.
Entry CCOc1ccccc1OCCNCCCCNC(=O)C(C)(C)C (as salt: fumarate) [compound 64] has what melting point?
131.5 to 133 °C
